Settings: buffer; pH 7.4; 200.0 µM
Catalogue of log10(solubility kinetic) readings, one per entry.
Property Name: log10(solubility kinetic) (log10 of the value in µg/mL)

- Molecule: "COc1cccc(OCC(=O)Nc2ccccc2-c2ccccc2)c1"
  Value Measured: 0.18
- Molecule: "Cc1cc(=O)oc2cc(NC(=O)C3CCCC3)ccc12"
  Value Measured: 0.48
- Molecule: "Cc1cc(OCCN2CCOCC2)ccc1C(C)C.Cl"
  Value Measured: 1.53
- Molecule: "Cc1ccccc1NC(=O)c1cccnc1"
  Value Measured: 1.32
- Molecule: "COc1ccc(CNC(=O)COc2ccc(OC)cc2)cc1"
  Value Measured: 1.55
- Molecule: "CCC(=O)N1c2ccc(S(=O)(=O)N3CCCC3)cc2CC1C (centres undefined)"
  Value Measured: 1.53
- Molecule: "CC1(C)CC(=O)c2c(Cc3ccccc3)noc2C1"
  Value Measured: 1.52
- Molecule: "Cc1cccc(C)c1OCC(O)CN1CCCCC1.Cl (centres undefined)"
  Value Measured: 1.64
- Molecule: "COc1ccccc1CNC(=O)c1cc(-c2cccnc2)nc2ccccc12"
  Value Measured: -0.15
- Molecule: "Cc1ccc(S(=O)(=O)Oc2ccccc2/C=C2/SC(=O)NC2=O)cc1"
  Value Measured: 1.72
- Molecule: "CN1c2ccc(Cl)cc2C(=O)NC1c1ccc([N+](=O)[O-])s1 (centres undefined)"
  Value Measured: 1.48
- Molecule: "CCS(=O)(=O)N1CCC(N2CCC(C)CC2)CC1.O=C(O)C(=O)O"
  Value Measured: 1.73
- Molecule: "O=C(Nc1ncc(Cc2cccc([N+](=O)[O-])c2)s1)c1ccco1"
  Value Measured: -0.15
- Molecule: "CN(C)/C=N/c1sc2c(c1C(N)=O)CCCC2"
  Value Measured: 1.29
- Molecule: "O=c1c2sc(-c3ccccc3)cc2nc2n1CCCCC2"
  Value Measured: 1.47
- Molecule: "CCCNC(=S)N1CCC(NC(=O)Nc2ccc(C)cc2)CC1"
  Value Measured: 0.69
- Molecule: "COc1ccc2c(c1)C=C(CN1CCN(C(C)C)C(CCO)C1)CO2 (centres undefined)"
  Value Measured: 1.54
- Molecule: "CN(C)c1ccc(P(=O)(OC2CCCCC2)C(O)c2ccncc2)cc1 (centres undefined)"
  Value Measured: 1.72
- Molecule: "CC1CCCC(NC(=O)COC(=O)/C=C/c2ccc([N+](=O)[O-])cc2)C1C (centres undefined)"
  Value Measured: 0.68
- Molecule: "Cc1ncc([N+](=O)[O-])n1Cc1ccc(Cl)cc1"
  Value Measured: 1.54
- Molecule: "COC(=O)/C(C#N)=C/c1c(Oc2cc(C)cc(C)c2)nc2ccccn2c1=O"
  Value Measured: 0.23
- Molecule: "NC(=S)c1ncc(C(F)(F)F)cc1Cl"
  Value Measured: 1.48
- Molecule: "O=C(/C=C/c1ccco1)Nc1scc(-c2ccccc2)c1C(=O)O"
  Value Measured: 1.69

====

Catalogue of solubility kinetic readings, one per entry.
Settings: buffer; pH 7.4; 200.0 µM
Property Name: solubility kinetic (µg/mL)

- Molecule: "CCOC(=O)Cn1cc(Cl)c(=O)c(Cl)c1"
  Unit Label: "µg/mL"
  Relation Sign: "="
  Value Measured: 35.8
- Molecule: "O=C(Nc1ccc2c(c1)C(=O)OC2)c1ccc(Cl)cc1"
  Unit Label: "µg/mL"
  Relation Sign: "<"
  Value Measured: 0.6
- Molecule: "Cc1cccc(N2C(=O)C3C4C=CC(C5CC45)C3C2=O)n1 (configuration not stated)"
  Unit Label: "µg/mL"
  Relation Sign: "="
  Value Measured: 36.5
- Molecule: "O=C(NCCCn1ccnc1)c1ccc(OCC(F)(F)F)cc1"
  Unit Label: "µg/mL"
  Relation Sign: "="
  Value Measured: 43.4
- Molecule: "CC(OC(=O)c1ccccc1CCc1ccccc1)C(N)=O (configuration not stated)"
  Unit Label: "µg/mL"
  Relation Sign: ">"
  Value Measured: 44.6
- Molecule: "O=C(/C=C\\c1ccc2c(c1)OCO2)CC1(O)C(=O)Nc2ccccc21 (configuration not stated)"
  Unit Label: "µg/mL"
  Relation Sign: "="
  Value Measured: 24.6
- Molecule: "CC(=O)NN1CCc2cc3ccc(C)cc3nc21"
  Unit Label: "µg/mL"
  Relation Sign: ">"
  Value Measured: 36.2
- Molecule: "O=C(Nc1ccc(F)cc1)c1csc(Cc2ccccc2)n1"
  Unit Label: "µg/mL"
  Relation Sign: "="
  Value Measured: 1.3
- Molecule: "O=C(COC(=O)c1cc[n+]([O-])cc1)NC(=O)c1ccc(OC(F)F)cc1"
  Unit Label: "µg/mL"
  Relation Sign: ">"
  Value Measured: 54.9
- Molecule: "COc1ccccc1NC(=S)NCc1ccccc1Cl"
  Unit Label: "µg/mL"
  Relation Sign: "="
  Value Measured: 1.3
- Molecule: "Cc1ccc(C(=O)N2CCC(Cc3ccccc3)CC2)cc1[N+](=O)[O-]"
  Unit Label: "µg/mL"
  Relation Sign: "="
  Value Measured: 10.3
- Molecule: "O=C(Nc1ccccc1O)c1ccc2c(c1)C(=O)N(Cc1ccco1)C2=O"
  Unit Label: "µg/mL"
  Relation Sign: "="
  Value Measured: 1.3

====

Catalogue of solubility kinetic readings, one per entry.
Settings: buffer; pH 7.4; 200.0 µM

- Smiles Str: "Cc1cccc(Nc2cc(=O)n(C)c(=O)[nH]2)c1"
  Unit Label: "µg/mL"
  Relation Sign: ">"
  solubility kinetic: 34.7
- Smiles Str: "CC(=O)c1c(C)[nH]c(C(=O)Nc2ccc(Cl)cc2)c1C"
  Unit Label: "µg/mL"
  Relation Sign: "="
  solubility kinetic: 2.2
- Smiles Str: "O=c1c2ccccc2[nH]c(=S)n1Cc1ccccc1"
  Unit Label: "µg/mL"
  Relation Sign: "<"
  solubility kinetic: 0.3
- Smiles Str: "CC(=O)N(c1nc(CCl)cs1)c1ccc(C)cc1C"
  Unit Label: "µg/mL"
  Relation Sign: ">"
  solubility kinetic: 44.2
- Smiles Str: "CC(=O)c1sc(Nc2cccc(C)c2)nc1C"
  Unit Label: "µg/mL"
  Relation Sign: "="
  solubility kinetic: 3
- Smiles Str: "CN(C(=O)c1ccc(NC(=O)c2ccco2)cc1)c1ccccc1"
  Unit Label: "µg/mL"
  Relation Sign: "="
  solubility kinetic: 2.9

====

Conditions: buffer; pH 7.4; 200.0 µM
Mark Fulfilled for reported solubility kinetic of 10 µg/mL or greater; mark Not fulfilled for anything smaller.

- Molecule: "NS(=O)(=O)c1ccc(CNC(=O)c2ccc(C(=O)c3ccccc3)cc2)cc1"
  Label: "Fulfilled"
- Molecule: "Cc1cccc(C)c1NC(=S)N(CCc1ccncc1)C(C)C"
  Label: "Fulfilled"
- Molecule: "O=C(COc1ccc2c(c1)OCO2)Nc1ccc(Cl)cn1"
  Label: "Not fulfilled"
- Molecule: "O=C(COC(=O)c1ccc([N+](=O)[O-])o1)NC1CCCc2ccccc21 (centres undefined)"
  Label: "Fulfilled"
- Molecule: "Nc1nnc(SCC(=O)OCC(=O)NC2CCCCC2)s1"
  Label: "Fulfilled"
- Molecule: "Cc1ccc(OCC(=O)NC2CC(C)(C)NC(C)(C)C2)c(C)c1"
  Label: "Fulfilled"
- Molecule: "C=CCc1cc(/C=C2/NC(=O)N(CC(=O)OC)C2=O)cc(OC)c1O"
  Label: "Fulfilled"
- Molecule: "Cc1ccc(S(=O)(=O)n2c(N)nc3ccccc32)cc1"
  Label: "Not fulfilled"
- Molecule: "Cc1ccc(OCC(=O)O/N=C(\\N)Cc2ccc([N+](=O)[O-])cc2)cc1C"
  Label: "Not fulfilled"
- Molecule: "COc1ccc(S(=O)(=O)NC(Cc2ccccc2)C(=O)O)cc1 (centres undefined)"
  Label: "Fulfilled"
- Molecule: "Cc1ccc(C)c(NS(=O)(=O)c2csc(C(N)=O)c2)c1"
  Label: "Fulfilled"
- Molecule: "Cc1cc(C)c2c(=O)cc(C(F)(F)F)oc2n1"
  Label: "Fulfilled"
- Molecule: "O=C1CSC(c2ccccc2)N1Cc1ccccc1 (centres undefined)"
  Label: "Fulfilled"
- Molecule: "O=[N+]([O-])c1c(NCCCO)cc(Sc2ccc(Cl)cc2)c2nonc12"
  Label: "Fulfilled"
- Molecule: "Cc1cc(C)cc(NCc2ccncc2)c1"
  Label: "Fulfilled"
- Molecule: "CCOC(=O)c1ccc(N2C(=O)Cc3ccccc3C2=O)cc1"
  Label: "Fulfilled"
- Molecule: "COc1cccc(OC)c1C(=O)O/N=C(\\N)c1ccncc1"
  Label: "Fulfilled"
- Molecule: "CCC(C)NC(=O)Cc1c(OC)ccc2cc(Br)ccc12 (centres undefined)"
  Label: "Not fulfilled"
- Molecule: "COc1ccccc1OC(C)C(=O)Nc1ccc2c(c1)OCCO2 (centres undefined)"
  Label: "Fulfilled"
- Molecule: "NC(=S)Nc1ccc2c(c1)OCO2"
  Label: "Fulfilled"
- Molecule: "Cc1ccc(NC(c2ccccc2)c2nc3ccccc3[nH]c2=O)cc1 (centres undefined)"
  Label: "Not fulfilled"
- Molecule: "O=C(COC(=O)COc1ccccc1)Nc1ccc(Br)cc1Br"
  Label: "Not fulfilled"
- Molecule: "O=C(c1cc2cccc([N+](=O)[O-])c2oc1=O)N1CCOCC1"
  Label: "Fulfilled"
